Molecular target: KRas G12V (Homo sapiens, UniProt P01116, G12V)
Sequence (P01116 1-169 isoform P01116-2 G12V): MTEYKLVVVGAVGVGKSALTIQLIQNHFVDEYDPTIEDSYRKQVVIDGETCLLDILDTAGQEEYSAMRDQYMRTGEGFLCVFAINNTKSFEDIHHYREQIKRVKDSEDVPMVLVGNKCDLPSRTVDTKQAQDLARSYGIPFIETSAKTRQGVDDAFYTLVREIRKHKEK
Experiment: biochemical
Details: Binding to KRas (IC50 nM) G12V, TR-FRET displacement, KRas G12V
attribute-measured: IC50

molecule	target	measured-result
CCc1c(F)ccc2cc(O)cc(N3CCc4c(nc(OC[C@@]56CCCN5C[C@H](F)C6)nc4N4CCCn5nnc(Cl)c5C4)C3)c12 [Example 391]	KRas G12V (Homo sapiens, UniProt P01116, G12V)	< 2 nM
CCc1c(F)ccc2cc(O)cc(N3CCc4c(nc(OC[C@@]56CCCN5C[C@H](F)C6)nc4N4CCCn5nc(C(=O)N6CC7CC6C7)cc5C4)C3)c12 [Example 342]	KRas G12V (Homo sapiens, UniProt P01116, G12V)	< 2 nM
C[C@@H]1C[C@@H]1c1c(Cl)cc2[nH]ncc2c1N1CCc2c(nc(OCC34CCCN3CCC4)nc2N2CCC[C@]3(C2)NC(=O)NC3=O)C1 [Example 449]	KRas G12V (Homo sapiens, UniProt P01116, G12V)	< 2 nM
CCc1c(F)ccc2cc(O)cc(N3CCc4c(nc(OC[C@@]56CCCN5C[C@H](F)C6)nc4N4CCCn5nc(C(=O)N(C6CC6)C6CC6)cc5C4)C3)c12 [Example 637]	KRas G12V (Homo sapiens, UniProt P01116, G12V)	< 2 nM
CCc1c(F)ccc2cc(O)cc(N3CCc4c(nc(OC[C@@]56CCCN5C[C@H](F)C6)nc4N4CCCn5nc6c(c5C4)CCCNC6=O)C3)c12 [Example 415]	KRas G12V (Homo sapiens, UniProt P01116, G12V)	< 2 nM
C[C@@]1(O)CCCN(c2nc(OC[C@@]34CCCN3C[C@H](F)C4)nc3c2CCN(c2ccc(F)c4sc(N)c(C#N)c24)C3)C1 [Example 711]	KRas G12V (Homo sapiens, UniProt P01116, G12V)	21 nM
CCc1cccc2cccc(N3CCc4c(nc(OCC5(CN(C)C)CC5)nc4NCCc4sc(N)nc4C)C3)c12 [Example 670]	KRas G12V (Homo sapiens, UniProt P01116, G12V)	1540 nM
CCc1c(F)ccc2cc(O)cc(N3CCc4c(nc(OC[C@@]56CCCN5C[C@H](F)C6)nc4N4CCCn5nc(N)c(Cl)c5C4)C3)c12 [Example 358]	KRas G12V (Homo sapiens, UniProt P01116, G12V)	< 2 nM
CCc1cccc2cccc(N3CCc4c(nc(OCC5(CN(C)C)CC5)nc4N4CCCC(n5cccn5)C4)C3)c12 (stereo not shown) [Example 682]	KRas G12V (Homo sapiens, UniProt P01116, G12V)	1760 nM
CCc1c(F)ccc2cc(O)cc(N3CCc4c(nc(OC[C@@]56CCCN5C[C@H](F)C6)nc4N4CCCn5nc(NC(C)=O)cc5C4)C3)c12 [Example 356]	KRas G12V (Homo sapiens, UniProt P01116, G12V)	3 nM
CCc1c(F)ccc2cc(O)cc(N3CCc4c(nc(OC[C@@]56CCCN5C[C@H](F)C6)nc4N4CCCn5nc(C(=O)N6CC7CCC6CC7)cc5C4)C3)c12 [Example 339]	KRas G12V (Homo sapiens, UniProt P01116, G12V)	< 2 nM
CCc1cccc2cccc(N3CCc4c(nc(OCC5(CN(C)C)CC5)nc4NCc4ncn(C(C)C)n4)C3)c12 [Example 673]	KRas G12V (Homo sapiens, UniProt P01116, G12V)	2440 nM
CCc1c(F)ccc2cc(O)cc(N3CCc4c(nc(OC[C@@]56CCCN5C[C@H](F)C6)nc4N4CCCn5nc(C(=O)N6C[C@@H]7C[C@H](C6)[C@H](O)C7)cc5C4)C3)c12 [Example 268]	KRas G12V (Homo sapiens, UniProt P01116, G12V)	< 2 nM
CCc1c(F)ccc2cc(O)cc(N3CCc4c(nc(OC[C@@]56CCCN5C[C@H](F)C6)nc4N4CCCn5nc(C(=O)NCCOCCOC)cc5C4)C3)c12 [Example 374]	KRas G12V (Homo sapiens, UniProt P01116, G12V)	< 2 nM
CCc1c(F)ccc2cc(O)cc(N3CCc4c(nc(OC[C@@]56CCCN5C[C@H](F)C6)nc4N4CCCc5occc5C4)C3)c12 [Example 423]	KRas G12V (Homo sapiens, UniProt P01116, G12V)	42 nM
CCc1cccc2cccc(N3CCc4c(nc(OCC5(CN(C)C)CC5)nc4N4CCC(F)C(OC)C4)C3)c12 (stereo not shown) [Example 543]	KRas G12V (Homo sapiens, UniProt P01116, G12V)	3940 nM
CCc1c(F)ccc2cc(O)cc(N3CCc4c(nc(OC[C@@]56CCCN5C[C@H](F)C6)nc4N4CCCn5nc(C(=O)N6CCC7CC6CN7C)cc5C4)C3)c12 (stereo partly shown) [Example 501]	KRas G12V (Homo sapiens, UniProt P01116, G12V)	< 2 nM
O=S1(=O)CCC2(CCCN(c3nc(OC[C@@]45CCCN4C[C@H](F)C5)nc4c3CCN(c3cc(O)cc5cccc(Cl)c35)C4)C2)N1 (stereo partly shown) [Example 513]	KRas G12V (Homo sapiens, UniProt P01116, G12V)	< 2 nM
CCc1c(F)ccc2cc(O)cc(N3CCc4c(nc(OC[C@@]56CCCN5C[C@H](F)C6)nc4N4CCCn5nc(C(=O)OC)cc5C4)C3)c12 [Example 411]	KRas G12V (Homo sapiens, UniProt P01116, G12V)	< 2 nM
